All figures here come from patent US20210163540.

Molecular target: T1, OP (Artificial, UniProt Q9XDM8 SEQ:1-184)
T1 chain: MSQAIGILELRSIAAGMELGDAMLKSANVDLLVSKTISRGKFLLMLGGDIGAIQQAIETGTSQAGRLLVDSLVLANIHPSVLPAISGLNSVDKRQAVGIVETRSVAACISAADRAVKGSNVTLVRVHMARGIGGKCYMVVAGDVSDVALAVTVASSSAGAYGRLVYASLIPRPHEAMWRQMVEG
Test: fluorescence quenching kinetics koff/kon, PBS, room temp; p321 gives (2.4±0.3)e-10
Settings: tags: C-terminal His6; chain copies: 24 (self-assembled cage); label: Atto488 5'
pKd: −log10 of the molar value.

Binder	pKd
TTAATTAAAGACTTCAAGCGG (ssDNA) [Atto488-ssDNA (A488-DNA)]	9.62
